These measurements were taken from the supplement of paper PMC12636033.

Tested on: muMax20 (Max(13-93) K31hArg/K57hArg, M65Nle)
Measurement Notes: PBM 8-mer E-score (E-score (rank enrichment, -0.5 to 0.5)); higher = stronger preferential binding
Whole data set: some 33,000 sequences, median “E-score (rank enrichment, -0.5 to 0.5)” near -0.0068, cut for the highest 2% near 0.24. Shown is part of a subset that was picked to be rich in the highest values.
Outcome label depends on PBM 8-mer E-score relative to 0.2: at/above gives fulfilled, below gives not fulfilled.

ATAATTAT fulfilled
ACGTGGTC fulfilled
AATCTTTG not fulfilled
ATAACATC fulfilled
AGGTGGTG not fulfilled

Item GAGCCTAA with PBM 8-mer E-score of 0.2 or above?
not fulfilled

Item AAAACAGC with PBM 8-mer E-score of 0.2 or above?
not fulfilled

Item GAAACCCC with PBM 8-mer E-score of 0.2 or above?
not fulfilled

Item AGTATAAA with PBM 8-mer E-score of 0.2 or above?
fulfilled

Item GTGATTAA with PBM 8-mer E-score of 0.2 or above?
fulfilled

Item GTTAGATA with PBM 8-mer E-score of 0.2 or above?
not fulfilled

Item ATTCAGCA with PBM 8-mer E-score of 0.2 or above?
not fulfilled

Item ATAATTAC with PBM 8-mer E-score of 0.2 or above?
fulfilled

Item CTAATTAA with PBM 8-mer E-score of 0.2 or above?
not fulfilled

Item AGTATAAC with PBM 8-mer E-score of 0.2 or above?
not fulfilled

Item CTAACACA with PBM 8-mer E-score of 0.2 or above?
not fulfilled
